Numbers sourced from ChEMBL document CHEMBL3039007.

Molecular target: Solute carrier organic anion transporter family member 1B1 (Homo sapiens)
Sequence (Q9Y6L6 whole entry): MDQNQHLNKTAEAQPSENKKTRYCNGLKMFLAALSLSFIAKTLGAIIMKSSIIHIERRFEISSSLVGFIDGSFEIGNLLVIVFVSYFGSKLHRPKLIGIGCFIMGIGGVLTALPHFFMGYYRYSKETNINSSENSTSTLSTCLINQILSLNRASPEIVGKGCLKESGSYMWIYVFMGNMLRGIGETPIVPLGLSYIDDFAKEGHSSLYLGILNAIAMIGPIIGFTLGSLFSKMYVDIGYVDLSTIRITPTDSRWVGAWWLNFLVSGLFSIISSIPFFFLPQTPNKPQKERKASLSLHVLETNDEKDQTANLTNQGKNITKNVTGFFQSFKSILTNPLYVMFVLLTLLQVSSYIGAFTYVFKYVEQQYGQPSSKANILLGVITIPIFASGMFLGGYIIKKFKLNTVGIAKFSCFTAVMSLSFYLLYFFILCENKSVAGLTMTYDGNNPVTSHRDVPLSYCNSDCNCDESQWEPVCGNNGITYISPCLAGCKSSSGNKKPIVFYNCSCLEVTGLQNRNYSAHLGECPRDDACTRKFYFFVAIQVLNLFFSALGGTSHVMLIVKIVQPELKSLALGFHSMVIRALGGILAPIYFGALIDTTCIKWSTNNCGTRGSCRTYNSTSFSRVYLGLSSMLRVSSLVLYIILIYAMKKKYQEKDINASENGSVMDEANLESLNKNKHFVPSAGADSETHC
Settings: chinese hamster, cho, 10 µM

compound	readoutUnits	residual activity
C=C(C)[C@H]1Cc2c(ccc3c(=O)c4c(oc23)COc2cc(OC)c(OC)cc2-4)O1 [DEHYDROROTENONE]	%	113.5
C[C@@H]1C[C@H]2[C@@H]3CCC4=CC(=O)C=C[C@]4(C)[C@@]3(Cl)[C@@H](O)C[C@]2(C)[C@@]1(OC(=O)c1ccco1)C(=O)CCl [MOMETASONE FUROATE]	%	34.01
C=C[C@H]1CN2CC[C@H]1C[C@@H]2[C@@H](O)c1ccnc2ccc(OC)cc12.O=C(O)[C@H](O)[C@@H](O)[C@H](O)[C@H](O)CO [QUINIDINE GLUCONATE]	%	103.2
CC(C)[C@H](N)C(=O)OCCOCn1cnc2c(=O)[nH]c(N)nc21.Cl [VALACYCLOVIR HYDROCHLORIDE]	%	68.57
COc1cc2c(cc1OC)[C@@]13CCN4CC5=CCO[C@H]6CC(=O)N2[C@H]1[C@H]6[C@H]5C[C@H]43	%	117.9
CCCOc1ccc2nc(NC(=O)OC)[nH]c2c1	%	102.5
CCOC(=O)C1=C[C@]2(CC)CCCN3CCc4c(n1c1ccccc41)[C@@H]32	%	167.7
